- test target: T1, M11
- T1 construct: also called PD1 mutant M11
- experiment: scFv-phage ELISA
assay metric: OD490
Give only the figure.

Prompt line: Any idea what OD490 was measured for PD1-52E8 (antibody, V domains shown, scFv-phage in the screening ELISA; whole IgG in the other assays) VH: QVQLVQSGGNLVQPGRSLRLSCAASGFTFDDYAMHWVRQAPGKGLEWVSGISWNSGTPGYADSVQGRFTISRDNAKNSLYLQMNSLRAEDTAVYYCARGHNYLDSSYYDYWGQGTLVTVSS VL: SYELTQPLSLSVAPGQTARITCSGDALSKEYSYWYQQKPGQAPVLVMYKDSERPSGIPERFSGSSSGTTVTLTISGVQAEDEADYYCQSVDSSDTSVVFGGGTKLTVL ?
Response line: 0.2

Prompt line: Query PD1-49A2 (antibody, V domains shown, scFv-phage in the screening ELISA; whole IgG in the other assays; also called Parent 49A2) VH: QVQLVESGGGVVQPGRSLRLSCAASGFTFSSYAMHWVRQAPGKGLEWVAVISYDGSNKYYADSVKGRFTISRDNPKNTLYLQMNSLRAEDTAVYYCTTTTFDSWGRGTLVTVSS VL: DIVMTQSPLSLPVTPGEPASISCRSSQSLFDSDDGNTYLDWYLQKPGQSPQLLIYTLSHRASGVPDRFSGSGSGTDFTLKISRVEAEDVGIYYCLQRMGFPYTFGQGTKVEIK next
Response line: 0.4

Prompt line: And the next one, PD1-45F1 (antibody, V domains shown, scFv-phage in the screening ELISA; later whole IgG) VH: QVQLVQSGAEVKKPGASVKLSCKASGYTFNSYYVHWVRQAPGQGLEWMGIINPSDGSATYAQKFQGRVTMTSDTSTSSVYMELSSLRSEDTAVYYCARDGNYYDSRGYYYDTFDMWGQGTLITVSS VL: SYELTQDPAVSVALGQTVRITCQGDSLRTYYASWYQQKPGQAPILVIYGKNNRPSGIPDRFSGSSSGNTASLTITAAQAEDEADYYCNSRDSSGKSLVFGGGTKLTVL ?
Response line: 3.8
